perc_inhibition_mean by entry:
target: SARS-CoV-2 nsp3-mac1 (Severe acute respiratory syndrome coronavirus 2, UniProt P0DTD1); assay: biochemical; format: biochemical; settings: SARS-CoV-2 nsp3 macrodomain TR-FRET single point, concentration 50.0 uM
The reply should be a number in %, with the unit left off.

Illustrative cases are given below, each with its answer.
{"smiles.string": "COCc1nc(CNc2c(C#N)c(C)nn2C)cs1", "assayed.system": "SARS-CoV-2 nsp3-mac1 (Severe acute respiratory syndrome coronavirus 2, UniProt P0DTD1)", "unit.annotation": "%", "perc_inhibition_mean": 0.8}
{"smiles.string": "NS(=O)(=O)N1CCCN(c2ncnc3[nH]c(I)cc23)CC1", "assayed.system": "SARS-CoV-2 nsp3-mac1 (Severe acute respiratory syndrome coronavirus 2, UniProt P0DTD1)", "unit.annotation": "%", "perc_inhibition_mean": 2.291}
{"smiles.string": "FC(F)(F)c1ccccc1[C@@H]1CN(c2ncnc3[nH]ccc23)CCO1", "assayed.system": "SARS-CoV-2 nsp3-mac1 (Severe acute respiratory syndrome coronavirus 2, UniProt P0DTD1)", "unit.annotation": "%", "perc_inhibition_mean": -5.311}

Exercise: Return reported perc_inhibition_mean; argument: O=C(Nc1cnc2[nH]ncc2c1)c1cc(C2CC2)[nH]c1C1CC1
Key: -23.613

Exercise: Okay, and O=C(OCc1ccc(Cl)nc1)c1ncnc2[nH]ccc12 ?
Key: 6.084

Exercise: Then what about the compound NC(=O)c1ccccc1NC(=O)c1ncnc2[nH]ccc12 ?
Key: -2.586

====

Let's look at some compounds and their measured perc_inhibition: % inhibition of control enzyme activity, PDE3A (h).
biological target: PDE3A (h) (Homo sapiens); construct: purchased Eurofins Cerep (SafetyScreen44), recognised from the panel format; assay: In vitro CEREP profiling, PDE3A (h); format: biochemical; conditions: test compound concentration 10 uM; Enzyme and Cell-based assays
Sequence (Q14432 whole entry): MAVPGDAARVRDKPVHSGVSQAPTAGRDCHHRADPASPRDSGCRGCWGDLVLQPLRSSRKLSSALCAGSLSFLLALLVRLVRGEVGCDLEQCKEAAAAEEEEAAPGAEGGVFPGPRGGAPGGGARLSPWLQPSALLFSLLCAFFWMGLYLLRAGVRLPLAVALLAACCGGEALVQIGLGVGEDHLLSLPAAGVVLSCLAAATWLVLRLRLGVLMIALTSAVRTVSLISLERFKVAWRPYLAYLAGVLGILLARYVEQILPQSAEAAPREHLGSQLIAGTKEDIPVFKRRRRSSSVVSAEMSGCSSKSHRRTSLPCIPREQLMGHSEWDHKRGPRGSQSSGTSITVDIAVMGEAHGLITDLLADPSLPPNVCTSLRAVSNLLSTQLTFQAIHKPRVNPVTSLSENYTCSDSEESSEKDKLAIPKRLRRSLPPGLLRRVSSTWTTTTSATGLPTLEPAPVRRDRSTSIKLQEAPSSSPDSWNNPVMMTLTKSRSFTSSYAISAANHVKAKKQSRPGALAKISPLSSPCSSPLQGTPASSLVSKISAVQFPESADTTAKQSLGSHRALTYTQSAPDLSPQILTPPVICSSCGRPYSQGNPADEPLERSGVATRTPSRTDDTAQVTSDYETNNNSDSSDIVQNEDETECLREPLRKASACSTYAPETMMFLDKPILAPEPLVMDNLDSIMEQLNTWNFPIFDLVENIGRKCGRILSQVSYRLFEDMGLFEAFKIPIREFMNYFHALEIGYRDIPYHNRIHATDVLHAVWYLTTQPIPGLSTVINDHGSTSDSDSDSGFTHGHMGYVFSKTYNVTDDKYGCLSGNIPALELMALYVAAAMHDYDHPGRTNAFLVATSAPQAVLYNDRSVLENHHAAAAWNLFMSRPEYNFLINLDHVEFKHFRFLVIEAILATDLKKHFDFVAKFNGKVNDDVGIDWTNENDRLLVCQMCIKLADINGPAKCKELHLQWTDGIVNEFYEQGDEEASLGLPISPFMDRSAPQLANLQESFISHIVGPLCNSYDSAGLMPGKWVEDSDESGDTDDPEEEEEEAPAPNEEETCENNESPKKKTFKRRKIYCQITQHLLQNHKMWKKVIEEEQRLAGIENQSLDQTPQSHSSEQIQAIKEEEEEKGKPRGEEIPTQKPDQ
Provide only the numeric value, understood in %.

Record excerpt, results attached:
{"smiles.string": "CC(C)[C@@H](Nc1ncnc2[nH]c(-c3cnn(C)c3C#N)cc12)c1ccc2c(n1)OCCO2", "quantitative.result": 37}
{"smiles.string": "Cn1ncc(-c2cc3c(N[C@@H](c4ccc5c(n4)OCCO5)C(C)(C)C)ncnc3[nH]2)c1C#N", "quantitative.result": 37}

Exercise: GET /values?readout=perc_inhibition: % inhibition of control enzyme activity, PDE3A (h)&system=PDE3A (h) (Homo sapiens)&item= CNCc1cc(-c2cc3c(N[C@@H](c4ccc5c(c4)S(=O)(=O)CCC5)C(C)C)ncnc3[nH]2)co1
Key: -5

Exercise: Then what about the compound CC(C)[C@H](Nc1ncnc2[nH]ccc12)c1ccc2c(c1)S(=O)(=O)CCC2 ?
Key: 29

Exercise: Proceed to COc1ccc([C@H](Cc2nnn[nH]2)NC(=O)c2ncnc3[nH]ccc23)cc1
Key: 62

Exercise: Similarly, C[C@H](C(=O)O)[C@@H](NC(=O)c1ncnc2[nH]ccc12)c1ccc(Br)cc1 ?
Key: 52

Exercise: Then what about the compound CC(C)[C@H](Nc1ncnc2[nH]c(-c3cnn(C)c3C#N)cc12)c1ccc2c(n1)OCCO2 ?
Key: 37

====

target: N neuronal alpha4beta2 (h) (Homo sapiens, UniProt P17787+P43681); construct: purchased Eurofins Cerep (SafetyScreen44), recognised from the panel format; assay: In vitro CEREP profiling, N neuronal alpha4beta2 (h) (agonist radioligand); assay type: binding; conditions: test compound concentration 10 uM
Sequence (P43681 29-627 limits assumed): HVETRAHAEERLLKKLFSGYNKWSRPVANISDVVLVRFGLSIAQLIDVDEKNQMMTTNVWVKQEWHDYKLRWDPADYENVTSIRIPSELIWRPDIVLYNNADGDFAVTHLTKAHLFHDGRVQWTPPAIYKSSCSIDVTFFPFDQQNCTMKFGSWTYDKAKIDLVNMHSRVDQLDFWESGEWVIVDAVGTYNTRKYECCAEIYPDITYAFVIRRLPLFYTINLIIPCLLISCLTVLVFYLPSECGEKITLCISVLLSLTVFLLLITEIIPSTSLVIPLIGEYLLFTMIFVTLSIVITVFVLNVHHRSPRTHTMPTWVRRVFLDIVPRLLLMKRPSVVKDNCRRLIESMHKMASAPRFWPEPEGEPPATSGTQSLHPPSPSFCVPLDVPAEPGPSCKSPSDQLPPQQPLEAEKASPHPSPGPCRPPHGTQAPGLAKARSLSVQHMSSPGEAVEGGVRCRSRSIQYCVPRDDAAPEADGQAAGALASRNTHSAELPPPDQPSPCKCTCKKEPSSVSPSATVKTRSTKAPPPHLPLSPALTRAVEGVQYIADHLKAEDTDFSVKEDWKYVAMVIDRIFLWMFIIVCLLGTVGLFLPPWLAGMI
Sequence (P17787 26-502): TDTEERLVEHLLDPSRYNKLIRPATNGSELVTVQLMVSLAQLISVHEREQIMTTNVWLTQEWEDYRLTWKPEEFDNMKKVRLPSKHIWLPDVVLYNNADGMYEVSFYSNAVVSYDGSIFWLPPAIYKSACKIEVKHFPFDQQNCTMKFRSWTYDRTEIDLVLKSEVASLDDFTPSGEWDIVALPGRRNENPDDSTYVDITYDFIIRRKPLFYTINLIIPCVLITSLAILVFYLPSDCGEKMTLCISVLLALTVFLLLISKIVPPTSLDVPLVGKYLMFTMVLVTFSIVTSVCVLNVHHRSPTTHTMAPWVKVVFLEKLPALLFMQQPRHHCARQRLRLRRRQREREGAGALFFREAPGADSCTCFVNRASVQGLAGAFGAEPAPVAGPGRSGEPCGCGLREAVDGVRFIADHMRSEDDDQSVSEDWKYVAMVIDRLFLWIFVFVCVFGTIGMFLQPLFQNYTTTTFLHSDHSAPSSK
metric: perc_inhibition (% inhibition of the binding of a ligand specific for each target) (%)
Numeric only. Scale: %

{"smiles.string": "CNCc1cc(-c2cc3c(N[C@@H](c4ccc5c(c4)S(=O)(=O)CCC5)C(C)C)ncnc3[nH]2)co1", "quantitative.result": 0}
{"smiles.string": "C[C@H](C(=O)O)[C@@H](NC(=O)c1ncnc2[nH]ccc12)c1ccc(Br)cc1", "quantitative.result": 0}

Exercise: Entry under review: CC(C)[C@H](Nc1ncnc2[nH]ccc12)c1ccc2c(c1)S(=O)(=O)CCC2 . Reported perc_inhibition (% inhibition of the binding of a ligand specific for each target)?
Key: 1

====

Biological target: ETA (h) (Homo sapiens)
Construct: purchased Eurofins Cerep (SafetyScreen44), recognised from the panel format
Sequence (P25101 21-427): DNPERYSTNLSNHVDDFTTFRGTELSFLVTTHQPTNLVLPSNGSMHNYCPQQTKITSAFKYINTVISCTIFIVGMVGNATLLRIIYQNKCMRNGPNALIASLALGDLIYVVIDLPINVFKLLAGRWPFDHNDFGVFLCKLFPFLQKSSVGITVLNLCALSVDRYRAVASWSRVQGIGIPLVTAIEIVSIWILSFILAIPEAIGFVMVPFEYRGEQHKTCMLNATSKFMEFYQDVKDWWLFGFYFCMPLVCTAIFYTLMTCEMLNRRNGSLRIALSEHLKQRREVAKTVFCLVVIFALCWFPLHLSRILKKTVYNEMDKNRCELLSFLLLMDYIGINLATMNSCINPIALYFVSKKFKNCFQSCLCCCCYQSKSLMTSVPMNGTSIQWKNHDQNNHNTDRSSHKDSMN
Test: In vitro CEREP profiling, ETA (h) (agonist radioligand)
Assay type: binding
Settings: test compound 10 uM
Quick reference: perc_inhibition (% inhibition of the binding of a ligand specific for each target) of the listed items.
# output: bare number, implied unit %

Examples with answers:
{"molecule": "CC(C)[C@H](Nc1ncnc2[nH]c(-c3cnn(C)c3C#N)cc12)c1ccc2c(n1)OCCO2 [ASAP-0010715]", "quantitative.result": 42}
{"molecule": "C[C@H](C(=O)O)[C@@H](NC(=O)c1ncnc2[nH]ccc12)c1ccc(Br)cc1 [ASAP-0014722]", "quantitative.result": -2}
{"molecule": "COc1ccc([C@H](Cc2nnn[nH]2)NC(=O)c2ncnc3[nH]ccc23)cc1 [ASAP-0015381]", "quantitative.result": 2}
{"molecule": "CC(C)[C@H](Nc1ncnc2[nH]ccc12)c1ccc2c(c1)S(=O)(=O)CCC2 [ASAP-0008674]", "quantitative.result": -1}
{"molecule": "CNCc1cc(-c2cc3c(N[C@@H](c4ccc5c(c4)S(=O)(=O)CCC5)C(C)C)ncnc3[nH]2)co1 [ASAP-0011176]", "quantitative.result": -1}
{"molecule": "Cn1ncc(-c2cc3c(N[C@@H](c4ccc5c(n4)OCCO5)C(C)(C)C)ncnc3[nH]2)c1C#N [ASAP-0011221]", "quantitative.result": 9}

Consider the record given below.
Exercise: Param readout = perc_inhibition (% inhibition of the binding of a ligand specific for each target); param system = ETA (h) (Homo sapiens); param query = CC(C)[C@@H](Nc1ncnc2[nH]c(-c3cnn(C)c3C#N)cc12)c1ccc2c(n1)OCCO2 [ASAP-0010716] ; response: value
Key: 5

====

assay: In vitro kinetic solubility; settings: In vitro kinetic solubility, ph 7.4
Quick rule for you: solubility_mean at 90 µM or higher means 1 (yes), lower means 0 (no).

{"compound": "COc1ccc(C(NC(=O)c2ncnc3[nH]ccc23)C(C)c2nnn[nH]2)cc1 (mixture of isomers)", "assigned.category": "1 (yes)"}

Exercise: Determine whether measured solubility_mean meets or exceeds 90 µM for Cn1ncc(-c2cc3c(N[C@@H](c4ccc5c(n4)OCCO5)C(C)(C)C)ncnc3[nH]2)c1C#N
Key: 0 (no)

Exercise: Input CNC(=O)c1cc2c(N[C@@H](c3ccc4c(c3)NC(=O)CO4)C(C)C)ncnc2[nH]1 [ASAP-0011219]
Key: 1 (yes)

Exercise: Subsequent entry: CC(C)[C@@H](Nc1ncnc2[nH]c(-c3cnn(C)c3C#N)cc12)c1ccc2c(c1)S(=O)(=O)CCC2 [ASAP-0008651]
Key: 0 (no)

Exercise: Thanks! And CC(C)[C@@H](Nc1ncnc2[nH]ccc12)c1ccc2c(c1)S(=O)(=O)CCC2 (single isomer, unassigned) ?
Key: 1 (yes)

Exercise: Query CCNC(=O)c1cc2c(N[C@H](c3ccc4c(c3)OCCO4)C(C)C)ncnc2[nH]1 [ASAP-0013824] next
Key: 1 (yes)

====

assay: Permeability Papp (AB) MDR1/MDCKII; details: MDR1-MDCKII, recovery B to A, with inhibitor Cyclosporin A
# perc_recovery_b_to_a_inhibitor_mean per record follows
Only the number, expressed in %, is required.

Please review the entries below; each comes with its answer.
{"compound": "CC(C)[C@@H](Nc1ncnc2[nH]c(-c3cnn(CC(N)=O)c3)cc12)c1ccc2c(n1)OCCO2 (single isomer, unassigned) [ASAP-0012315]", "metric": "perc_recovery_b_to_a_inhibitor_mean", "unit.annotation": "%", "quantitative.result": 57.4}
{"compound": "CC(C)[C@H](Nc1ncnc2[nH]c(-c3cnn(C)c3C#N)cc12)c1ccc2c(c1)S(=O)(=O)CCC2 (single isomer, unassigned) [ASAP-0011144]", "metric": "perc_recovery_b_to_a_inhibitor_mean", "unit.annotation": "%", "quantitative.result": 76.3}
{"compound": "C[C@H](C(=O)O)[C@@H](NC(=O)c1ncnc2[nH]ccc12)c1ccc(Br)cc1 [ASAP-0014722]", "metric": "perc_recovery_b_to_a_inhibitor_mean", "unit.annotation": "%", "quantitative.result": 84.1}
{"compound": "CCNC(=O)c1cc2c(N[C@@H](c3ccc4c(c3)S(=O)(=O)CCO4)C(C)C)ncnc2[nH]1 (racemic) [ASAP-0012317]", "metric": "perc_recovery_b_to_a_inhibitor_mean", "unit.annotation": "%", "quantitative.result": 89.0}

Exercise: Recorded perc_recovery_b_to_a_inhibitor_mean of CC(C)[C@H](Nc1ncnc2[nH]c(-c3cnn(C)c3C#N)cc12)c1ccc2c(n1)OCCO2 [ASAP-0010715] , please.
Key: 76.7

Exercise: Lookup COc1ccc([C@H](Cc2nnn[nH]2)NC(=O)c2ncnc3[nH]ccc23)cc1 [ASAP-0015381]
Key: 85.5

Exercise: Now consider CC(C)[C@H](Nc1ncnc2[nH]ccc12)c1ccc2c(c1)S(=O)(=O)CCC2 [ASAP-0008674] .
Key: 87.0

Exercise: Continue with CC(C)[C@@H](Nc1ncnc2[nH]ccc12)c1ccc2c(c1)S(=O)(=O)CCC2 (single isomer, unassigned) [ASAP-0008676]
Key: 63.3

Exercise: Record: CC(C)[C@@H](Nc1ncnc2[nH]c(-c3cnn(C)c3)cc12)c1ccc2c(c1)S(=O)(=O)CCC2 (single isomer, unassigned) [ASAP-0012329]
Key: 63.1

Exercise: Please answer likewise for CNCc1cc(-c2cc3c(N[C@@H](c4ccc5c(c4)S(=O)(=O)CCC5)C(C)C)ncnc3[nH]2)co1 [ASAP-0011176]
Key: 83.0

Exercise: Moving on to Cn1ncc(-c2cc3c(N[C@@H](c4ccc5c(n4)OCCO5)C(C)(C)C)ncnc3[nH]2)c1C#N [ASAP-0011221]
Key: 62.4
